ASSAYED SYSTEM: UniProtKB P00591
Sequence (P00591 whole entry): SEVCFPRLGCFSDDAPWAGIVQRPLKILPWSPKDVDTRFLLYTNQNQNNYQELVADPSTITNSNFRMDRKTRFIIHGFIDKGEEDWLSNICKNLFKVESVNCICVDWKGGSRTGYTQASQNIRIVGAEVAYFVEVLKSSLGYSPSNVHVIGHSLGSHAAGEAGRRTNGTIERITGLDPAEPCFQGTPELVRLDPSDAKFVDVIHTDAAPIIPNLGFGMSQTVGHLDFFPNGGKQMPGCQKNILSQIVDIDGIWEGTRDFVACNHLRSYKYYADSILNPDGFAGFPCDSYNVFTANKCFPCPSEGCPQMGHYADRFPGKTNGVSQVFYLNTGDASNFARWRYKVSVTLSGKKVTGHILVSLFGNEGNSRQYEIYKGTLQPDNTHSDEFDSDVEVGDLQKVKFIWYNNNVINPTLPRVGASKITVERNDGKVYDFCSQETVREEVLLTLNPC
TEST DESCRIPTION: Inhibition of porcine pancreatic lipase using para-nitrophenyl butyrate as substrate at 100 uM by ELISA
The source made the active and inactive calls. The calls are words filed in the database; no cut-off is given here.
The categories you may choose from are active, inactive

Returns: the outcome recorded for `O=c1c(O[C@@H]2O[C@H](CO)[C@@H](O)[C@H](O)[C@H]2O)c(-c2ccc(O)c(O)c2)oc2cc(O)cc(O)c12` in this assay.
inactive

Again, but for `CC(=O)/C=C/[C@@]12O[C@]1(C)C[C@@H](O)CC2(C)C`
inactive

Again, but for `CC(=O)/C=C/[C@H]1[C@H](C)C[C@H](O)CC1(C)C`
inactive
